experiment: Clearance in Sprague-Dawley rat at 5 mg/kg, iv; type: ADME, organism-based; design: dose 5 mg/kg, route intravenous; settings: in vivo
endpointLabel: clearance (mL/min/kg)
Please respond with the number in mL/min/kg and leave the unit unwritten.

Solved entries (count: 2):
• COC(=O)N[C@H](C(=O)N[C@@H](Cc1ccc(-c2ccccn2)cc1)C[C@H](O)[C@H](Cc1ccccc1)NC(=O)[C@@H](N1CCN(Cc2csc(-c3cccnc3)n2)C1=O)C(C)(C)C)C(C)(C)C = 34.2
• COC(=O)N[C@H](C(=O)N[C@@H](Cc1ccc(-c2ccccn2)cc1)C[C@H](O)[C@H](Cc1ccccc1)NC(=O)[C@@H](N1CCN(Cc2ccccc2OC)C1=O)C(C)(C)C)C(C)(C)C = 36

Next molecule, clearance to be filled in.
Item under review: COC(=O)N[C@H](C(=O)N[C@@H](Cc1ccc(-c2ccccn2)cc1)[C@@H](O)C[C@H](Cc1ccccc1)NC(=O)[C@@H](N1CCN(Cc2csc(-c3cccnc3)n2)C1=O)C(C)(C)C)C(C)(C)C . Reported clearance? 46.7

* * *

test: Concentration of drug after 12 hrs in dog at 5 mg/kg, po coadministered with 2.5 mg/kg ritonavir; type: ADME, organism-based, Canis lupus familiaris; conditions: in vivo, read-out: Drug uptake
endpointLabel: concentration at 12 h (ng/mL)
Give the number; ng/mL is assumed, so skip it.

* COC(=O)N[C@H](C(=O)N[C@@H](Cc1ccc(-c2ccccn2)cc1)C[C@H](O)[C@H](Cc1ccccc1)NC(=O)[C@@H](N1CCN(Cc2ccccc2)C1=O)C(C)(C)C)C(C)(C)C | 68

Would you kindly look at the next entry?
Returns the measured concentration at 12 h for the input compound. Input: COC(=O)N[C@H](C(=O)N[C@H](Cc1ccc(-c2ccccn2)cc1)C[C@H](O)[C@H](Cc1ccccc1)NC(=O)[C@@H](N1CCN(Cc2cccc(C(C)(C)O)n2)C1=O)C(C)(C)C)C(C)(C)C 13

* * *

experiment: Oral bioavailability in Sprague-Dawley rat at 5 mg/kg; type: ADME, organism-based; details: in vivo
endpointLabel: bioavailability (%)
Enter your answer as a number in %; do not include the unit.

* COC(=O)N[C@H](C(=O)N[C@@H](Cc1ccc(-c2ccccn2)cc1)[C@@H](O)C[C@H](Cc1ccccc1)NC(=O)[C@@H](N1CCN(Cc2cccc(C(C)(C)O)n2)C1=O)C(C)(C)C)C(C)(C)C | 17
* COC(=O)N[C@H](C(=O)N[C@@H](Cc1ccc(-c2ccccn2)cc1)C[C@H](O)[C@H](Cc1ccccc1)NC(=O)[C@@H](N1CCN(Cc2ccccc2)C1=O)C(C)(C)C)C(C)(C)C | 3.4
* COC(=O)N[C@H](C(=O)N[C@@H](Cc1ccc(-c2ccccn2)cc1)C[C@H](O)[C@H](Cc1ccccc1)NC(=O)[C@@H](N1CCN(Cc2ccccc2N)C1=O)C(C)(C)C)C(C)(C)C | 2.9
* COC(=O)N[C@H](C(=O)N[C@@H](Cc1ccc(-c2ccccn2)cc1)C[C@H](O)[C@H](Cc1ccccc1)NC(=O)[C@@H](N1CCN(Cc2csc(-c3cccnc3)n2)C1=O)C(C)(C)C)C(C)(C)C | 0.8
* COC(=O)N[C@H](C(=O)N[C@H](Cc1ccc(-c2ccccn2)cc1)C[C@H](O)[C@H](Cc1ccccc1)NC(=O)[C@@H](N1CCN(Cc2csc(C)n2)C1=O)C(C)(C)C)C(C)(C)C | 5.9

Need bioavailability of COC(=O)N[C@H](C(=O)N[C@H](Cc1ccc(-c2ccccn2)cc1)C[C@H](O)[C@H](Cc1ccccc1)NC(=O)[C@@H](N1CCN(Cc2nc3ccccc3n2C)C1=O)C(C)(C)C)C(C)(C)C , thanks. 0.1

* * *

// AUC lookup, one value per entry
experiment: AUC in Sprague-Dawley rat at 5 mg/kg, po; assay type: ADME, organism-based; parameters: dose 5 mg/kg, route oral; conditions: plasma
Write it as a number; the unit ng·h/mL goes unstated.

• COC(=O)N[C@H](C(=O)N[C@@H](Cc1ccc(-c2ccccn2)cc1)C[C@H](O)[C@H](Cc1ccccc1)NC(=O)[C@@H](N1CCN(Cc2ccccc2OC)C1=O)C(C)(C)C)C(C)(C)C = 70
• COC(=O)N[C@H](C(=O)N[C@@H](Cc1ccc(-c2ccccn2)cc1)C[C@H](O)[C@H](Cc1ccccc1)NC(=O)[C@@H](N1CCN(Cc2cccc(C(C)(C)O)n2)C1=O)C(C)(C)C)C(C)(C)C = 200

Item under review: COC(=O)N[C@H](C(=O)N[C@H](Cc1ccc(-c2ccccn2)cc1)C[C@H](O)[C@H](Cc1ccccc1)NC(=O)[C@@H](N1CCN(Cc2csc(C)n2)C1=O)C(C)(C)C)C(C)(C)C . Reported AUC? 160

Cool, now COC(=O)N[C@H](C(=O)N[C@@H](Cc1ccc(-c2ccccn2)cc1)[C@@H](O)C[C@H](Cc1ccccc1)NC(=O)[C@@H](N1CCN(Cc2csc(-c3cccnc3)n2)C1=O)C(C)(C)C)C(C)(C)C 30

Try this molecule next: COC(=O)N[C@H](C(=O)N[C@@H](Cc1ccc(-c2ccccn2)cc1)C[C@H](O)[C@H](Cc1ccccc1)NC(=O)[C@@H](N1CCN(Cc2ccnc3ccccc23)C1=O)C(C)(C)C)C(C)(C)C 20

* * *

assay: Half life in Sprague-Dawley rat at 5 mg/kg, iv; format: ADME, organism-based; parameters: dose 5 mg/kg, route intravenous; settings: in vivo
# reported half-life; entries follow
Express the result in min but write the number alone.

Some solved cases for reference:
* COC(=O)N[C@H](C(=O)N[C@@H](Cc1ccc(-c2ccccn2)cc1)C[C@H](O)[C@H](Cc1ccccc1)NC(=O)[C@@H](N1CCN(Cc2ccccc2OC)C1=O)C(C)(C)C)C(C)(C)C | 72
* COC(=O)N[C@H](C(=O)N[C@H](Cc1ccc(-c2ccccn2)cc1)C[C@H](O)[C@H](Cc1ccccc1)NC(=O)[C@@H](N1CCN(Cc2cccc(C(C)(C)O)n2)C1=O)C(C)(C)C)C(C)(C)C | 30
* COC(=O)N[C@H](C(=O)N[C@@H](Cc1ccc(-c2ccccn2)cc1)[C@@H](O)C[C@H](Cc1ccccc1)NC(=O)[C@@H](N1CCN(Cc2csc(C)n2)C1=O)C(C)(C)C)C(C)(C)C | 30

Attention now shifts to the item below.
Which value of half-life has been reported for COC(=O)N[C@H](C(=O)N[C@@H](Cc1ccc(-c2ccccn2)cc1)[C@@H](O)C[C@H](Cc1ccccc1)NC(=O)[C@@H](N1CCN(Cc2cccc(C(C)(C)O)n2)C1=O)C(C)(C)C)C(C)(C)C in the records? 54

All figures here come from ChEMBL document CHEMBL1153436.
